TARGET OR TEST SYSTEM: UniProt Q8I5Y9
EXPERIMENTAL DETAILS: IC50 for competition of protein binding to Kinobeads;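 further: native unpurified kinases from lysate captured on beads bearing immobilized kinase inhibitors, with bead-bound kinases quantified by mass spectrometry across compound doses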
CONDITION: assay detail: Kinobeads competition in P. falciparum blood-stage lysate
pIC50: −log10 of the molar value.
READOUT NAME: pIC50

Summary for this compound, O=c1[nH]c2ccc(Cl)cc2c(NC2CN3CCC2CC3)c1-c1nc2ccccc2[nH]1 (stereo unspecified) [CHIR-124] : pIC50 is < 4.70

====

TARGET OR TEST SYSTEM: UniProt C0H4Z7
EXPERIMENTAL DETAILS: IC50 for competition of protein binding to Kinobeads
CONDITION: assay detail: Kinobeads competition in P. falciparum blood-stage lysate
READOUT NAME: IC50

O=c1[nH]c2ccc(Cl)cc2c(NC2CN3CCC2CC3)c1-c1nc2ccccc2[nH]1 (stereo unspecified) yielded IC50 of > 20 µM

====

TARGET OR TEST SYSTEM: UniProt Q8I0V3
EXPERIMENTAL DETAILS: IC50 for competition of protein binding to Kinobeads
CONDITION: assay detail: Kinobeads competition in P. falciparum blood-stage lysate
READOUT NAME: IC50

Data point: O=c1[nH]c2ccc(Cl)cc2c(NC2CN3CCC2CC3)c1-c1nc2ccccc2[nH]1 (stereo unspecified) ; IC50 = > 20 µM

====

TARGET OR TEST SYSTEM: UniProt Q8I3T4
EXPERIMENTAL DETAILS: IC50 for competition of protein binding to Kinobeads
CONDITION: assay detail: Kinobeads competition in P. falciparum blood-stage lysate
pIC50: −log10 of the molar value.
READOUT NAME: pIC50

// assay UniProt Q8I3T4, entry O=c1[nH]c2ccc(Cl)cc2c(NC2CN3CCC2CC3)c1-c1nc2ccccc2[nH]1 (stereo unspecified) , pIC50 value = < 4.70

====

TARGET OR TEST SYSTEM: UniProt C6KT64
EXPERIMENTAL DETAILS: IC50 for competition of protein binding to Kinobeads
CONDITION: assay detail: Kinobeads competition in P. falciparum blood-stage lysate
READOUT NAME: IC50

Memo: O=c1[nH]c2ccc(Cl)cc2c(NC2CN3CCC2CC3)c1-c1nc2ccccc2[nH]1 (stereo unspecified) , reported IC50: > 20 µM

====

TARGET OR TEST SYSTEM: UniProt Q8IJ72
EXPERIMENTAL DETAILS: IC50 for competition of protein binding to Kinobeads
CONDITION: assay detail: Kinobeads competition in P. falciparum blood-stage lysate
pIC50: −log10 of the molar value.
READOUT NAME: pIC50

Lookup result for O=c1[nH]c2ccc(Cl)cc2c(NC2CN3CCC2CC3)c1-c1nc2ccccc2[nH]1 (stereo unspecified) [CHIR-124] ; measured pIC50: < 4.70

====

TARGET OR TEST SYSTEM: UniProt O97241
EXPERIMENTAL DETAILS: IC50 for competition of protein binding to Kinobeads
CONDITION: assay detail: Kinobeads competition in P. falciparum blood-stage lysate
READOUT NAME: IC50

Documented IC50 of O=c1[nH]c2ccc(Cl)cc2c(NC2CN3CCC2CC3)c1-c1nc2ccccc2[nH]1 (stereo unspecified) [CHIR-124] : > 20 µM

====

TARGET OR TEST SYSTEM: UniProt Q76NM6
Sequence (Q76NM6 whole entry): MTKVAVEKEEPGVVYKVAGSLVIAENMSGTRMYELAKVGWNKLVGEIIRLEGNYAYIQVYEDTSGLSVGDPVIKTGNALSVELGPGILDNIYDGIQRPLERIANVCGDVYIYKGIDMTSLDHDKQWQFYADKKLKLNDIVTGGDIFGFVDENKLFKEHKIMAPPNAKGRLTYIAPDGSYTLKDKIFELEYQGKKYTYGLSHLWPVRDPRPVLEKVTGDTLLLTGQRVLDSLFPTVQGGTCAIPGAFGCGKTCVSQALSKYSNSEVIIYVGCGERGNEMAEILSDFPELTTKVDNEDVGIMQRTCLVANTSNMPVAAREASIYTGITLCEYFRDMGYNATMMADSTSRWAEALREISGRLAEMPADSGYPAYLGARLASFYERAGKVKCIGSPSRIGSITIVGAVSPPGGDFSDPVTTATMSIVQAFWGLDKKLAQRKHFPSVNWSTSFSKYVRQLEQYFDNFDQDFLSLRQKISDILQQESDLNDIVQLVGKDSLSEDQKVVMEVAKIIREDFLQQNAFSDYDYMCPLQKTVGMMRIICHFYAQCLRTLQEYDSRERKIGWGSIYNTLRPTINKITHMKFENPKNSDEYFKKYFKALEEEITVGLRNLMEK
EXPERIMENTAL DETAILS: IC50 for competition of protein binding to Kinobeads
CONDITION: assay detail: Kinobeads competition in P. falciparum blood-stage lysate
pIC50: −log10 of the molar value.
READOUT NAME: pIC50

So for O=c1[nH]c2ccc(Cl)cc2c(NC2CN3CCC2CC3)c1-c1nc2ccccc2[nH]1 (stereo unspecified) , the logged pIC50 turned out to be < 4.70

====

TARGET OR TEST SYSTEM: UniProt Q8IE76
EXPERIMENTAL DETAILS: IC50 for competition of protein binding to Kinobeads
CONDITION: assay detail: Kinobeads competition in P. falciparum blood-stage lysate
READOUT NAME: IC50

Looking up O=c1[nH]c2ccc(Cl)cc2c(NC2CN3CCC2CC3)c1-c1nc2ccccc2[nH]1 (stereo unspecified) , I see its IC50 listed as > 20 µM

====

TARGET OR TEST SYSTEM: UniProt Q8IDM2
EXPERIMENTAL DETAILS: IC50 for competition of protein binding to Kinobeads
CONDITION: assay detail: Kinobeads competition in P. falciparum blood-stage lysate
pIC50: −log10 of the molar value.
READOUT NAME: pIC50

Bench note, UniProt Q8IDM2: O=c1[nH]c2ccc(Cl)cc2c(NC2CN3CCC2CC3)c1-c1nc2ccccc2[nH]1 (stereo unspecified) [CHIR-124] , pIC50 reads < 4.70

====

TARGET OR TEST SYSTEM: UniProt Q8I0P6
EXPERIMENTAL DETAILS: IC50 for competition of protein binding to Kinobeads
CONDITION: assay detail: Kinobeads competition in P. falciparum blood-stage lysate
pIC50: −log10 of the molar value.
READOUT NAME: pIC50

Notebook: O=c1[nH]c2ccc(Cl)cc2c(NC2CN3CCC2CC3)c1-c1nc2ccccc2[nH]1 (stereo unspecified) , pIC50 read as < 4.70

====

TARGET OR TEST SYSTEM: UniProt Q8IL13
EXPERIMENTAL DETAILS: IC50 for competition of protein binding to Kinobeads
CONDITION: assay detail: Kinobeads competition in P. falciparum blood-stage lysate
pIC50: −log10 of the molar value.
READOUT NAME: pIC50

The reported value for O=c1[nH]c2ccc(Cl)cc2c(NC2CN3CCC2CC3)c1-c1nc2ccccc2[nH]1 (stereo unspecified) in terms of pIC50 is < 4.70

====

TARGET OR TEST SYSTEM: UniProt Q8IJ37
EXPERIMENTAL DETAILS: IC50 for competition of protein binding to Kinobeads
CONDITION: assay detail: Kinobeads competition in P. falciparum blood-stage lysate
pIC50: −log10 of the molar value.
READOUT NAME: pIC50

# pIC50 (molecule: O=c1[nH]c2ccc(Cl)cc2c(NC2CN3CCC2CC3)c1-c1nc2ccccc2[nH]1 (stereo unspecified) ) is < 4.70

====

TARGET OR TEST SYSTEM: UniProt Q8I320
EXPERIMENTAL DETAILS: IC50 for competition of protein binding to Kinobeads
CONDITION: assay detail: Kinobeads competition in P. falciparum blood-stage lysate
READOUT NAME: IC50

// IC50 lookup, compound = O=c1[nH]c2ccc(Cl)cc2c(NC2CN3CCC2CC3)c1-c1nc2ccccc2[nH]1 (stereo unspecified) , result: > 20 µM

====

TARGET OR TEST SYSTEM: UniProt Q8I501
EXPERIMENTAL DETAILS: IC50 for competition of protein binding to Kinobeads
CONDITION: assay detail: Kinobeads competition in P. falciparum blood-stage lysate
READOUT NAME: IC50

Entry O=c1[nH]c2ccc(Cl)cc2c(NC2CN3CCC2CC3)c1-c1nc2ccccc2[nH]1 (stereo unspecified) , tested on UniProt Q8I501, has a reported IC50 of > 20 µM

====

TARGET OR TEST SYSTEM: UniProt Q8II24
EXPERIMENTAL DETAILS: IC50 for competition of protein binding to Kinobeads
CONDITION: assay detail: Kinobeads competition in P. falciparum blood-stage lysate
READOUT NAME: IC50

For O=c1[nH]c2ccc(Cl)cc2c(NC2CN3CCC2CC3)c1-c1nc2ccccc2[nH]1 (stereo unspecified) [CHIR-124] the molecule record lists IC50 as > 20 µM

====

TARGET OR TEST SYSTEM: UniProt Q8IJI7
EXPERIMENTAL DETAILS: IC50 for competition of protein binding to Kinobeads
CONDITION: assay detail: Kinobeads competition in P. falciparum blood-stage lysate
pIC50: −log10 of the molar value.
READOUT NAME: pIC50

So for O=c1[nH]c2ccc(Cl)cc2c(NC2CN3CCC2CC3)c1-c1nc2ccccc2[nH]1 (stereo unspecified) , the logged pIC50 turned out to be < 4.70

====

TARGET OR TEST SYSTEM: UniProt Q8IIR0
EXPERIMENTAL DETAILS: IC50 for competition of protein binding to Kinobeads
CONDITION: assay detail: Kinobeads competition in P. falciparum blood-stage lysate
pIC50: −log10 of the molar value.
READOUT NAME: pIC50

// sample O=c1[nH]c2ccc(Cl)cc2c(NC2CN3CCC2CC3)c1-c1nc2ccccc2[nH]1 (stereo unspecified) , its pIC50 was < 4.70

====

TARGET OR TEST SYSTEM: UniProt Q8IKU1
EXPERIMENTAL DETAILS: IC50 for competition of protein binding to Kinobeads
CONDITION: assay detail: Kinobeads competition in P. falciparum blood-stage lysate
pIC50: −log10 of the molar value.
READOUT NAME: pIC50

O=c1[nH]c2ccc(Cl)cc2c(NC2CN3CCC2CC3)c1-c1nc2ccccc2[nH]1 (stereo unspecified) yielded pIC50 of < 4.70

Data provenance: the supplement of paper PMC13386468
